# TARGET_DESC: T1, human CD47, endogenous cell surface form (Raji, CCRF-CEM cells) (human, UniProt Q08722 19-323)
# T1 construct: the cells carry endogenous CD47; also called cell surface CD47
# ASSAY_OVERVIEW: flow cytometry on Raji cells, MFI (FL4)
PROPERTY_LABEL: EC50 (read off the curve)

Lookup result for humanized antibody AB2.05 (human IgG1) (antibody, V domains shown) VH: QMQLVQSGAEVKKTGSSVKVSCKASGFNIKDYYLHWVRQAPGQALEWMGWIDPDNGDTEYAQKFQDRVTITRDRSMSTAYMELSSLRSEDTAMYYCNAAYGSSSYPMDYWGQGTTVTV VL: NIQMTQSPSAMSASVGDRVTITCKASQDIHRYLSWFQQKPGKVPKHLIYRANRLVDGVPSRFSGSGSGTEFTLTISSLQPEDFATYYCLQYDEFPYTFGGGTKVEIK ; measured EC50 (read off the curve): ~200 pM

Continuing:
Lookup result for AB24.05 (antibody, V domains shown) VH: EVQLVQSGAEVKKPGATVKISCKVSGFNIKDYYLHWVRQAPGQALEWMGWIDPDNGDTEYAQKFQDRVTITRDRSMSTAYMELSSLRSEDTAMYYCNAAYGSSSYPMDYWGQGTTVTV VL: NIQMTQSPSAMSASVGDRVTITCKASQDIHRYLSWFQQKPGKVPKHLIYRANRLVDGVPSRFSGSGSGTEFTLTISSLQPEDFATYYCLQYDEFPYTFGGGTKVEIK ; measured EC50 (read off the curve): ~200 pM
